Reported values of Maximum Inhibition (%) for individual entries
system_name: T1, human PDL1 (recombinant, soluble) (human, UniProt Q9NZQ7 19-238)
T1 construct: also called hPDL1; hPD-L1
protocol_description: PDL1/B7-1 competition ELISA; B7-1 coated; scFv
reported_property: Maximum Inhibition (%)

1) PRO1183 (33-03-G02-sc03 scFv) (scFv, also called 33_03_G02 sc03 Full) scFv: DFQLTQSPSSLSASVGDRVTITCQASQSINDYLAWYQQKPGKSPKLLIYKASTLASGVPSRFSGSGSGTDFTLTISSLQPEDFATYYCQQGYIITDIDNVFGTGTKVTVLGGGGGSGGGGSGGGGSGGGGSQSQLQESGPGLVKPSETLSLTCKASGFSFSSGYDMCWVRQPPGKGLEWIACVVAGSVDITYYASWAKGRVTISKDSSKNQVSLKLSSVTAADTAVYFCARKDAYSDAFNLWGQGTLVTVSS :: 95.4
2) PRO997/PRO908 (37-20-B03-sc01 scFv) (scFv, VL-linker-VH, VH4 CDR graft; PRO997 was made in CHO-S cells, PRO908 in bacteria; also called 37-20-B03 CDR) scFv: DIQMTQSPSSLSASVGDRVTITCQASQSIGTYLAWYQQKPGKAPKLLIYRAFILASGVPSRFSGSGSGTDFTLTISSLQPEDFATYYCQSNFYSDSTTIGPNAFGTGTKVTVLGGGGGSGGGGSGGGGSGGGGSQVQLQESGPGLVKPSETLSLTCKVSGFSFNSDYWIYWIRQPPGKGLEWIGSIYGGSSGNTQYASWAQGRVTISVDSSKNQFSLKLSSVTAADTAVYYCARGYVDYGGATDLWGQGTLVTVSS :: 93.1
3) PRO830 (33-03-G02-sc01 scFv) (scFv, also called 33-03-G02 CDR) scFv: DIQMTQSPSSLSASVGDRVTITCQASQSINDYLAWYQQKPGKAPKLLIYKASTLASGVPSRFSGSGSGTDFTLTISSLQPEDFATYYCQQGYIITDIDNVFGTGTKVTVLGGGGGSGGGGSGGGGSGGGGSQVQLQESGPGLVKPSETLSLTCKVSGFSFSSGYDMCWIRQPPGKGLEWIGCVVAGSVDITYYASWAKGRVTISVDSSKNQFSLKLSSVTAADTAVYYCARKDAYSDAFNLWGQGTLVTVSS :: 94.5
4) PRO1392 (33-03-G02-sc18 scFv) (scFv) scFv: DIQMTQSPSSLSASVGDRVTITCQASQSINDYLAWYQQKPGKAPKLLIYKASTLASGVPSRFSGSGSGTDFTLTISSLQPEDFATYYCQQGYIITDIDNVFGTGTKVTVLGGGGGSGGGGSGGGGSGGGGSQVQLQESGPGLVKPSETLSLTCKASGFSFSSGYDMCWVRQPPGKGLEWIACVVAGSVDITYYASWAKGRVTISKDSSKNQVSLKLSSVTAADTAVYYCARKDAYSDAFNLWGQGTLVTVSS :: 93.2
